Reference source: patent US20030055065A1

Measured pIC50 accompanies every entry in the list below.
- TARGET OR TEST SYSTEM: farnesyl protein transferase (FPT), partially purified from rat brain (Rattus norvegicus, UniProt Q02293+Q04631)
- Construct: were partially purified from rat brain by ammonium sulfate fractionation followed by Q-Sepharose
- ASSAY METHOD TEXT: Inhibition of farnesyl protein transferase (transfer of [3H]farnesyl to Ras-CVLS)
- Assay type: biochemical
- RUN CONDITIONS: Ras-CVLS farnesylation, partially purified rat brain FPT; read-out: FPT IC50
- Procedure: 1. In vitro enzyme assays: Inhibition of farnesyl protein transferase and geranylgeranyl protein transferase. Human farnesyl protein transferase was also expressed in E. coli, using cDNA clones encoding both the α and β subunits. […] The reaction was allowed to proceed for 30 minutes at room temperature and then stopped with 0.5 ml of 4% sodium dodecyl sulfate (SDS) followed by 0.5 ml of cold 30% trichloracetic acid (TCA). […] Percent inhibition was calculated relative to the DMSO vehicle control.
Note on pIC50: it is the negative log10 of concentration, concentration in mol/L.

# example entries with known answers
>>> value("O=C(c1ccc(Cl)nc1)N1CCC(=C2c3ccc(Cl)cc3CCc3cccnc32)CC1 [Example 98]")
5.36
>>> value("O=C(C1CCSCC1)N1CCC(=C2c3ccc(Cl)cc3CCc3cccnc32)CC1 [Example 103]")
5.34
>>> value("O=C(C(CO)c1ccccc1)N1CCC(=C2c3ccc(Cl)cc3CCc3cccnc32)CC1 (centres unmarked) [Example 41]")
5.21
>>> value("O=C(Cc1cc[n+]([O-])cc1)N1CCC(=C2c3ccc(Cl)cc3CCc3ccc[n+]([O-])c32)CC1 [Example 232]")
5.22

Now let's try a different one.
Please report the recorded pIC50 for CC(C)(C)CC(=O)N1CCC(=C2c3ccc(Cl)cc3CCc3cccnc32)CC1 [Example 57] . 5.01

---

- TARGET OR TEST SYSTEM: farnesyl protein transferase (FPT), partially purified from rat brain (Rattus norvegicus, UniProt Q02293+Q04631)
- Construct: were partially purified from rat brain by ammonium sulfate fractionation followed by Q-Sepharose
- ASSAY METHOD TEXT: Inhibition of farnesyl protein transferase (transfer of [3H]farnesyl to Ras-CVLS)
- Assay type: biochemical
- RUN CONDITIONS: Ras-CVLS farnesylation, partially purified rat brain FPT; read-out: FPT IC50
- Description: 1. In vitro enzyme assays: Inhibition of farnesyl protein transferase and geranylgeranyl protein transferase. Human farnesyl protein transferase was also expressed in E. coli, using cDNA clones encoding both the α and β subunits. […] The reaction was allowed to proceed for 30 minutes at room temperature and then stopped with 0.5 ml of 4% sodium dodecyl sulfate (SDS) followed by 0.5 ml of cold 30% trichloracetic acid (TCA). […] Percent inhibition was calculated relative to the DMSO vehicle control.
READOUT KIND: pIC50
Note on pIC50: it is the negative log10 of concentration, concentration in mol/L.

# example entries with known answers
>>> value("O=C(C(c1ccccc1)c1ccccc1)N1CCC(=C2c3ccc(Cl)cc3CCc3cccnc32)CC1")
6.22
>>> value("COc1cnc2c(c1)CCc1cc(Cl)ccc1C2=C1CCN(C(=O)Cc2cccnc2)CC1")
5.76
>>> value("O=C(Cc1ccncc1)N1CCC(=C2c3ccc(Br)cc3CCc3cccnc32)CC1")
6.64
>>> value("COc1ccnc2c1CCc1cc(Cl)ccc1C2=C1CCN(C(C)=O)CC1")
4.94
>>> value("CSCC[C@H](N)C(=O)N1CCC(CC(=O)N2CCN(C3c4ccc(Cl)cc4CCc4cccnc43)CC2)CC1 (stereo partly drawn)")
5.72

Please report the recorded pIC50 for "Cn1cc(C(=O)N2CCC(=C3c4ccc(Cl)cc4CCc4cccnc43)CC2)ccc1=O" . 4.95

---

- TARGET OR TEST SYSTEM: farnesyl protein transferase (FPT), partially purified from rat brain (Rattus norvegicus, UniProt Q02293+Q04631)
- Construct: were partially purified from rat brain by ammonium sulfate fractionation followed by Q-Sepharose
- ASSAY METHOD TEXT: Inhibition of farnesyl protein transferase (transfer of [3H]farnesyl to Ras-CVLS)
- Assay type: biochemical
- RUN CONDITIONS: enzyme inhibition; read-out: FPT IC50
READOUT KIND: IC50 (µM)
I only need the number, in µM, no unit after it.

# example entries with known answers
>>> value("O=C(Cc1cccnc1)N1CCC(=C2c3ccc(Cl)cc3CCc3cccnc32)CC1")
0.47
>>> value("O=C(Cc1ccc[n+]([O-])c1)N1CCC(=C2c3ccc(Cl)cc3CCc3cc(Cl)cnc32)CC1")
1.12
>>> value("O=C(Cc1ccncc1)N1CCC(C2c3ccc(Cl)cc3CCc3cc(Br)cnc32)CC1 (centres unmarked)")
0.04
>>> value("CC(C)(C(=O)N1CCC(=C2c3ccc(Cl)cc3CCc3cc(Br)cnc32)CC1)c1ccc[n+]([O-])c1")
0.59
>>> value("CC1(C2CCN(C(=O)Cc3ccncc3)CC2)c2ccc(Cl)cc2CCc2cc(Br)cnc21 (centres unmarked)")
0.086

Please report the recorded IC50 for O=C(Cc1ccncc1)N1CCC(C2c3ccc(Cl)cc3C=Cc3cc([N+](=O)[O-])cnc32)CC1 (centres unmarked) . 0.32

Please report the recorded IC50 for O=C(Cc1ccncc1)N1CCC(C2c3ccc(Cl)cc3C=Cc3cc(Br)cnc32)CC1 (centres unmarked) . 0.024

Please report the recorded IC50 for CN1CCC(CC(=O)N2CCC(C3c4ccc(Cl)cc4CCc4cc(Br)cnc43)CC2)CC1 (centres unmarked) . 0.14

---

Measured pIC50 accompanies every entry in the list below.
- TARGET OR TEST SYSTEM: farnesyl protein transferase (FPT), partially purified from rat brain (Rattus norvegicus, UniProt Q02293+Q04631)
- Construct: were partially purified from rat brain by ammonium sulfate fractionation followed by Q-Sepharose
- ASSAY METHOD TEXT: Inhibition of farnesyl protein transferase (transfer of [3H]farnesyl to Ras-CVLS)
- Assay type: biochemical
- RUN CONDITIONS: FPT IC50, Ras-CVLS farnesylation, partially purified rat brain FPT
Note on pIC50: it is the negative log10 of concentration, concentration in mol/L.

>>> value("O=C(Cc1ccc[n+]([O-])c1)N1CCN(C2c3ccc(Cl)cc3CCc3cccnc32)CC1 (stereo not drawn)")
5.93
>>> value("O=C(Cc1cccnc1)N1CCN(C2c3ccc(Cl)cc3CCc3c(Cl)ccnc32)CC1 (stereo not drawn)")
6.06

Now let's try a different one.
Please report the recorded pIC50 for O=C(Cc1cccnc1)N1CCN(C2c3ccc(Cl)cc3CCc3ccc[n+]([O-])c32)CC1 (stereo not drawn) . 6.04

---

- TARGET OR TEST SYSTEM: farnesyl protein transferase (FPT), partially purified from rat brain (Rattus norvegicus, UniProt Q02293+Q04631)
- Construct: were partially purified from rat brain by ammonium sulfate fractionation followed by Q-Sepharose
- ASSAY METHOD TEXT: Inhibition of farnesyl protein transferase (transfer of [3H]farnesyl to Ras-CVLS)
- Assay type: biochemical
- RUN CONDITIONS: Ras-CVLS farnesylation, partially purified rat brain FPT; read-out: FPT IC50
Measured pIC50 accompanies every entry in the list below.
Note on pIC50: it is the negative log10 of concentration, concentration in mol/L.

# example entries with known answers
>>> value("O=C(Nc1cccnc1)N1CCC(C2c3ccc(Cl)cc3CCc3cccnc32)CC1 (stereo not shown)")
6.01
>>> value("CN1CCN(CC(=O)N2CCC(=C3c4ccc(Cl)cc4CCc4cccnc43)CC2)CC1")
5.15
>>> value("CC(=O)N1CCC(C(=O)N2CCN([C@@H]3c4ccc(Cl)cc4CCc4cccnc43)CC2)CC1")
5.39
>>> value("O=C(Cc1ccccc1[N+](=O)[O-])C(=O)N1CCC(=C2c3ccc(Cl)cc3CCc3cccnc32)CC1")
5.60
>>> value("O=C(c1cnccn1)N1CCC(=C2c3ccc(Cl)cc3CCc3cccnc32)CC1")
5.14
>>> value("CC(=O)N1CCN(C2c3ccccc3CCc3ccccc32)CC1")
4.53
>>> value("O=C(Cc1cc[n+]([O-])cc1)N1CCC(C2c3ccc(Cl)cc3CCc3cccnc32)CC1 (stereo not shown)")
6.48
>>> value("O=C(Cc1ccncc1)N1CCC(C2c3ccc(Cl)cc3CCc3ccc[n+]([O-])c32)CC1 (stereo not shown)")
5.83
>>> value("CC(S)C(=O)NCC(=O)N1CCN(C2c3ccc(Cl)cc3CCc3cccnc32)CC1 (stereo not shown)")
5.56

Please report the recorded pIC50 for "O=C(c1cc[nH]c(=O)c1)N1CCC(=C2c3ccc(Cl)cc3CCc3cccnc32)CC1" . 5.20

---

- TARGET OR TEST SYSTEM: farnesyl protein transferase (FPT), partially purified from rat brain (Rattus norvegicus, UniProt Q02293+Q04631)
- Construct: were partially purified from rat brain by ammonium sulfate fractionation followed by Q-Sepharose
- ASSAY METHOD TEXT: Inhibition of farnesyl protein transferase (transfer of [3H]farnesyl to Ras-CVLS)
- Format: biochemical
- RUN CONDITIONS: enzyme inhibition; read-out: FPT IC50
- Description: 1. In vitro enzyme assays: Inhibition of farnesyl protein transferase and geranylgeranyl protein transferase. Human farnesyl protein transferase was also expressed in E. coli, using cDNA clones encoding both the α and β subunits. […] The reaction was allowed to proceed for 30 minutes at room temperature and then stopped with 0.5 ml of 4% sodium dodecyl sulfate (SDS) followed by 0.5 ml of cold 30% trichloracetic acid (TCA). […] Percent inhibition was calculated relative to the DMSO vehicle control.
// classify: if (IC50 < 0.6 µM) fulfilled else not fulfilled

Field: example entries. Status: answers known.
>>> category_label("CN1CCC(CC(=O)N2CCC(=C3c4ccc(Cl)cc4CCc4c3ncc(Br)c4Cl)CC2)CC1")
"fulfilled"
>>> category_label("CCNC(=O)N1CCC(CC(=O)N2CCN(C3c4ccc(Cl)cc4CCc4cccnc43)CC2)CC1 (stereo not shown)")
"not fulfilled"
>>> category_label("CCN1CCC(CC(=O)N2CCN(C3c4ccc(Cl)cc4CCc4cccnc43)CC2)CC1 (stereo not shown)")
"not fulfilled"
>>> category_label("CNC(=S)N1CCC(CC(=O)N2CCN(C3c4ccc(Cl)cc4CCc4cccnc43)CC2)CC1 (stereo not shown)")
"not fulfilled"
>>> category_label("CN1CCCC(CC(=O)N2CCN([C@@H]3c4ccc(Cl)cc4CCc4cccnc43)CC2)C1 (stereo partly shown)")
"not fulfilled"

Given the entry CC(C)(C(=O)N1CCN(C2c3ccc(Cl)cc3CCc3cccnc32)CC1)c1ccncc1 (stereo not shown) , would its reported IC50 be below 0.6 µM? not fulfilled

Given the entry "CC(C)(C(=O)N1CCC(=C2c3ccc(Cl)cc3CCc3cc(Br)cnc32)CC1)c1cc[n+]([O-])cc1" , would its reported IC50 be below 0.6 µM? not fulfilled

Given the entry "O=C(c1ccc(O)c(O)c1)N1CCC(=C2c3ccc(Cl)cc3CCc3cccnc32)CC1" , would its reported IC50 be below 0.6 µM? not fulfilled

Given the entry "O=C(Cc1ccncc1)N1CCC(=C2c3ccc(Cl)cc3CCc3cc(I)cnc32)CC1" , would its reported IC50 be below 0.6 µM? fulfilled
